biological target: PcrV of P. aeruginosa strain PA103 (on TTSS-induced bacteria) (Pseudomonas aeruginosa strain PA103); assay: cell-based or functional assay
assay endpoint: IC50 value (M), P3X63 cytotoxicity, MOI 12
Answer format reminder: number followed by unit.

Briefly, IC50 value (M), P3X63 cytotoxicity, MOI 12 measured for Nanobody 269 (6B05-40GS-13F07) (VHH) EVQLVESGGGLVQPGGSLRLSCAASGSIFSINTMGWYRQAPGKQRELVSTITSNLVPHYADSVQGRFTISRDNARNTVYLQMNSLKPQDTAHYYCNAWARSSGATPYTNYWGQGTLVTVSSGGGGSGGGGSGGGGSGGGGSGGGGSGGGGSGGGGSGGGGSEVQLVESGGGLVQAGGSLRLSCAASGNTFSTNPMYWYRQAEGKQRELVASISSRGITNYADSVRGRFSISRDNTKDTVYLQMNSLKPEDTAVYYCRLASLSSGTVYWGKGTLVTVSS : 8.2e-10 M
